B1: C22orf15 (parent)
chain: PRGRAHLLPNPYQQDFLGLPEELR

Variants of: B1
Assay: protein stability index of a GFP-peptide fusion (GPS, HEK-293T) (PSI 1-6); higher = more stable;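 note: lentivirally expressed fusions sorted by FACS into six bins by GFP to DsRed ratio, PSI derived from sequencing read proportions per bin multiplied by bin number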
Details: c terminus: a fixed tail appended
QUANTITY: protein stability index
Give a plain numeric answer without units written out.

As a guide, the following entries are already answered.
{"MUT": "P9A", "protein stability index": 3.66}
{"MUT": "L23P", "protein stability index": 3.6}
{"MUT": "H6N", "protein stability index": 4.26}
{"MUT": "N10S", "protein stability index": 4.29}
{"MUT": "F16H", "protein stability index": 4.44}
{"MUT": "Y12Q", "protein stability index": 4.07}
{"MUT": "L17C", "protein stability index": 4.04}
{"MUT": "G18P", "protein stability index": 3.71}
{"MUT": "Q14S", "protein stability index": 3.96}
{"MUT": "D15T", "protein stability index": 3.44}

Task item: Given the entry Q13T , report its measured protein stability index.
Reply: 3.64

Task item: Name the recorded protein stability index for Q14M .
Reply: 3.56

Task item: Name the recorded protein stability index for L23Q .
Reply: 4.51

Task item: So what does the record say about protein stability index for Q14C ?
Reply: 3.46

Task item: Quick check: protein stability index of F16W ?
Reply: 3.65
